Test system: Enterococcus faecalis
Experiment: Minimum inhibitory concentration against Streptococcus faecalis MGH-2 in vitro.
Type: functional
Criterion: MIC strictly under 0.1 µg/mL. Met: Met. Not met: Not met.

Some entries whose results are on file:
compound="CNCC1CCN(c2c(F)cc3c(=O)c(C(=O)O)cn(C4CC4)c3c2N)C1.Cl (centres undefined)" assigned_label="Not met"
compound="NCC1CCN(c2c(F)cc3c(=O)c(C(=O)O)cn(C4CC4)c3c2F)C1 (centres undefined)" assigned_label=Met
compound="CC(C)NCC1CCN(c2c(F)cc3c(=O)c(C(=O)O)cn4c3c2OCC4C)C1 (centres undefined)" assigned_label=Met
compound="Cl.NC1CCN(c2c(F)cc3c(=O)c(C(=O)O)cn(C4CC4)c3c2Cl)C1 (centres undefined) [CLINAFLOXACIN HYDROCHLORIDE]" assigned_label=Met
compound="Cl.NC1CCN(c2c(F)cc3c(=O)c(C(=O)O)cn(C4CC4)c3c2[N+](=O)[O-])C1 (centres undefined)" assigned_label="Not met"
compound="CN(C)CC1CCN(c2c(F)cc3c(=O)c(C(=O)O)cn(C4CC4)c3c2Cl)C1 (centres undefined)" assigned_label=Met

Challenge: Please let me know if Nc1c(N2CCNCC2)c(F)cc2c(=O)c(C(=O)O)cn(C3CC3)c12 shows MIC below 0.1 µg/mL.
Response given: Not met

Challenge: Answer whether the compound CNCC1CCN(c2c(F)cc3c(=O)c(C(=O)O)cn(C4CC4)c3c2F)C1 (centres undefined) has MIC strictly less than 0.1 µg/mL
Response given: Met

----------
Below is a list of entries, each paired with its recorded log10(ED50) value.
System: Staphylococcus aureus
Assay: In vivo potency against Staphylococcus aureus using mouse protection assay following p.o. administration.
Assay type: functional
Conditions: po, read-out: PD50
Recall that a logarithmic scale is used here: each number is log10 of ED50 in mg/kg.

Challenge: Given the compound CN(C)CC1CCN(c2cc3c(cc2F)c(=O)c(C(=O)O)cn3C2CC2)C1 (configuration not stated) , write its reported log10(ED50).
Response given: 1.67

Challenge: For Cl.Cl.NC1CCN(c2cc3c(cc2F)c(=O)c(C(=O)O)cn3C2CC2)C1 (configuration not stated) , write its log10(ED50).
Response given: 1.69

Challenge: Given NC1CCN(c2nc3c(cc2F)c(=O)c(C(=O)O)cn3C2CC2)C1 (configuration not stated) , respond with its log10(ED50).
Response given: 0.85

Challenge: Tell me log10(ED50) reported for CCNCC1CCN(c2nc3c(cc2F)c(=O)c(C(=O)O)cn3C2CC2)C1 (configuration not stated)
Response given: 1.79

Challenge: Quote log10(ED50) reported for O=C(O)c1cn(C2CC2)c2c(F)c(N3CCNCC3)c(F)cc2c1=O please.
Response given: 0.85

Challenge: Please indicate log10(ED50) recorded for CC(C)NCC1CCN(c2c(F)cc3c(=O)c(C(=O)O)cn(C4CC4)c3c2F)C1 (configuration not stated)
Response given: 1.62

Challenge: Specify reported log10(ED50) for the compound shown: Cl.NC1CCN(c2c(F)cc3c(=O)c(C(=O)O)cn(C4CC4)c3c2F)C1 (configuration not stated)
Response given: 0.85

Challenge: // fetch log10(ED50) given entry CNCC1CCN(c2nc3c(cc2F)c(=O)c(C(=O)O)cn3C2CC2)C1 (configuration not stated)
Response given: 0.48
